Biological target: rat TRPA1 (Rattus norvegicus, UniProt Q6RI86)
Sequence (Q6RI86 whole entry): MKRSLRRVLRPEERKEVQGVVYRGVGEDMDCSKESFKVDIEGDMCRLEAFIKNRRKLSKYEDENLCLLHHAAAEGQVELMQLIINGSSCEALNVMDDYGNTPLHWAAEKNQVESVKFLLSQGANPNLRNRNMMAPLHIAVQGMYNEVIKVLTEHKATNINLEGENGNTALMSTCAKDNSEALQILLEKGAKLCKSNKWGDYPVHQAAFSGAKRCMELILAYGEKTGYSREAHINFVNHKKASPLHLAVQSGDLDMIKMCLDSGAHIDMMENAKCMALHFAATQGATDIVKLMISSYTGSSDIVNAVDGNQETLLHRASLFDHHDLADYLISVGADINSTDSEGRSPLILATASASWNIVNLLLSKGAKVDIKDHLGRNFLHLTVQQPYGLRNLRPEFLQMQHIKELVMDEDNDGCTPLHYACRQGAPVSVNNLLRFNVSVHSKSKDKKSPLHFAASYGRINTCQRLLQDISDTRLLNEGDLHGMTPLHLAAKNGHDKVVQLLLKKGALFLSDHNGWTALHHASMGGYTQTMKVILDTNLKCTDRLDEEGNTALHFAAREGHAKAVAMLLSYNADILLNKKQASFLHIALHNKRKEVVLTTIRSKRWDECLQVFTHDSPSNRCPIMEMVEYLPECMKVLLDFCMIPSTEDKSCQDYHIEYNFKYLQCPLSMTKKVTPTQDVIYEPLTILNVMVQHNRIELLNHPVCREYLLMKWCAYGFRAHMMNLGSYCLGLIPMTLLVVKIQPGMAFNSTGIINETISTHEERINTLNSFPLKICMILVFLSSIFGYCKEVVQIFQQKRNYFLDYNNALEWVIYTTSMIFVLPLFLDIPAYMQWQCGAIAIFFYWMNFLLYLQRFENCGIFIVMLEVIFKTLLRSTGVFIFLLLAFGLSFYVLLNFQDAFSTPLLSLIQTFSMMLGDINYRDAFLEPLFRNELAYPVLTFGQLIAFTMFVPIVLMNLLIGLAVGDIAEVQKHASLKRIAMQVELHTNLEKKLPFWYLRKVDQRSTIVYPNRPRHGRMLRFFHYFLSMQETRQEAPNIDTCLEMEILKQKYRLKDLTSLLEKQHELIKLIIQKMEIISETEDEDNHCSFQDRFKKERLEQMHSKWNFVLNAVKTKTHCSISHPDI
Experiment: rat TRPA1-mediated elevation of intracellular Ca2+ (Fluo-4) in transfected HEK-293 cells, agonist mode
Conditions: Potency EC50, TRPA1; concentration producing half-maximal increase in [Ca2+]i; rTRPA1-HEK-293 cells
Experimental: Compound effects on intracellular Ca^2+ concentration ([Ca^2+]i) were determined using the selective intracellular fluorescent probe Fluo-4. […] Cell fluorescence before and after the addition of various concentrations of test compounds was measured, normalizing the effects against the response to ionomycin (4 µM). […] Agonist efficacy was expressed as a percentage of the effect on [Ca^2+]i observed with 100 μM allylisothiocyanate (AITC). […]
The entries below are paired with their reported pEC50.
# reply with the number alone; pEC50 is -log10 of concentration in mol/L

Lookup result for CC(C)N=C=S [Compound 2, isopropylisothiocyanate] ; measured pEC50: 5.23

More entries:
Lookup result for CCC(C)N=C=S (centres unmarked) [Compound 4, 2-butylisothiocyanate] ; measured pEC50: 5.31
